Molecular target: Nociceptin receptor (Homo sapiens, UniProt P41146)
Sequence (P41146 whole entry): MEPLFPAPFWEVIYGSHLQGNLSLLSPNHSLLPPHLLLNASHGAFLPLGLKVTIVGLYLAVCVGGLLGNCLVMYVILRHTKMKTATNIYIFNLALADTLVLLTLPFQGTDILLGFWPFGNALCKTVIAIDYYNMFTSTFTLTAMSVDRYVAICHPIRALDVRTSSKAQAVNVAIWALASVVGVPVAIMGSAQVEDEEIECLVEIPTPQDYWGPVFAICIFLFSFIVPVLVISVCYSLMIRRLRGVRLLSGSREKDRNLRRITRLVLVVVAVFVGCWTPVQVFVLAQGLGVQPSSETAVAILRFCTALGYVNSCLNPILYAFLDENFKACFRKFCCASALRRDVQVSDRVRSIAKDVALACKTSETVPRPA
Experiment: In Vitro Binding Assay (IC50) and In Vitro Agonism/Antagonism Measurements (EC50/IC50)
Settings: pH 7.4; 37 °C
readoutName: EC50 (µM)

Cc1ccc(-c2c(C)c(CNC3CCCC3)nn2-c2ncccc2Cl)cn1: 0.0047

(A) Cc1c(CNC(C)C)nn(-c2ccc(Cl)cc2Cl)c1-c1ccc(Cl)cc1
(B) Cc1c(CNC2CCCC2)nn(-c2ncccc2Cl)c1-c1ccc(Cl)nc1
Ask: Between the entries labeled A and B , whose measured EC50 is lower? Pick one; state its label.
Reply: B
(B: 0.012 µM, A: 0.48 µM)
